// provenance: patent US20120276102A1

# Tgt: human IL-21R expressed on cells (human, UniProt Q9HBE5 20-538)
# Sequence (Q9HBE5 20-538 limits assumed): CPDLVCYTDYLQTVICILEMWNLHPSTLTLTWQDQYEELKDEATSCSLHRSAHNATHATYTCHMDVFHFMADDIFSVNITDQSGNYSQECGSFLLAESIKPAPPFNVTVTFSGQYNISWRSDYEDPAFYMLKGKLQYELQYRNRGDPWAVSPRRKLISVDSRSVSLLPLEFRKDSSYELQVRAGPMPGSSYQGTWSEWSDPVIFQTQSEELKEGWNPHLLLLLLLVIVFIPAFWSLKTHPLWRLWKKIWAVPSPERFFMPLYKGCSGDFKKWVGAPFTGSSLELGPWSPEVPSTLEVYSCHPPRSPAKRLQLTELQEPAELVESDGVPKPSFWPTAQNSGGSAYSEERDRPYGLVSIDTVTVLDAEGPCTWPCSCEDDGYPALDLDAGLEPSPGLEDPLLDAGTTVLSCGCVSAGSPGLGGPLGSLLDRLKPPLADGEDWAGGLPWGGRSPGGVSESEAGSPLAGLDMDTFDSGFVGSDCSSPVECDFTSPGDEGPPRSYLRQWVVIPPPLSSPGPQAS
# Assay Remarks: cell-based or functional assay
Test Readout: IC50, Human IL-21R-TF1 Neutralization Assay (nM)
Answer in nM, number only, no unit symbol.

| Binder | Uom | Test Result |
| --- | --- | --- |
| scFv L13 (scFv) scFv: QVQLQESGPGLVKTSETLSLTCAVSGYSISSGYYWGWIRQPPGKGLEWIGSISHTGNTYYNPPLKSRVTISVDTSKNQFSLKLSSVTAADTAVYYCARGGGISRPEYWGKGTLVTVSSGGGGSGGGGSGGGGSALSSELTQDPPVSVALGQTVTLTCQGDSLRTYYASWYQQKSGQAPILLLYGKHKRPSGIPDRFSGSTSGDTASLTITGAQAEDEADYYCVTRNRYGNPHVLFGGGTQLTVL | nM | 257 |

Ask: Bench note: what IC50, Human IL-21R-TF1 Neutralization Assay did scFv L25 (scFv) scFv: QVQLQESGPGLVKTSETLSLTCAVSGYSISSGYYWGWIRQPPGKGLEWIGSISHTGNTYYNPPLKSRVTISVDTSKNQFSLKLSSVTAADTAVYYCARGGGISRPEYWGKGTLVTVSSGGGGSGGGGSGGGGSALSSELTQDPPVSVALGQTVTLTCQGDSLRTYYASWYQQKSGQAPILLLYGKHKRPSGIPDRFSGSTSGDTASLTITGAQAEDEADYYCTTRSNKGNPHVLFGGGTQLTVL show?
Result: 33.1

Ask: Any idea what IC50, Human IL-21R-TF1 Neutralization Assay was measured for scFv L16 (scFv) scFv: QVQLQESGPGLVKTSETLSLTCAVSGYSISSGYYWGWIRQPPGKGLEWIGSISHTGNTYYNPPLKSRVTISVDTSKNQFSLKLSSVTAADTAVYYCARGGGISRPEYWGKGTLVTVSSGGGGSGGGGSGGGGSALSSELTQDPPVSVALGQTVTLTCQGDSLRTYYASWYQQKSGQAPILLLYGKHKRPSGIPDRFSGSTSGDTASLTITGAQAEDEADYYCVTRSAKGNPHVLFGGGTQLTVL ?
Result: 67.4

Ask: Returns the measured IC50, Human IL-21R-TF1 Neutralization Assay for the input binder. Input: scFv L12 (scFv) scFv: QVQLQESGPGLVKTSETLSLTCAVSGYSISSGYYWGWIRQPPGKGLEWIGSISHTGNTYYNPPLKSRVTISVDTSKNQFSLKLSSVTAADTAVYYCARGGGISRPEYWGKGTLVTVSSGGGGSGGGGSGGGGSALSSELTQDPPVSVALGQTVTLTCQGDSLRTYYASWYQQKSGQAPILLLYGKHKRPSGIPDRFSGSTSGDTASLTITGAQAEDEADYYCVARGTRGNPHVLFGGGTQLTVL
Result: 54.9
